B1: library; numbered along this chain (parent)
chain: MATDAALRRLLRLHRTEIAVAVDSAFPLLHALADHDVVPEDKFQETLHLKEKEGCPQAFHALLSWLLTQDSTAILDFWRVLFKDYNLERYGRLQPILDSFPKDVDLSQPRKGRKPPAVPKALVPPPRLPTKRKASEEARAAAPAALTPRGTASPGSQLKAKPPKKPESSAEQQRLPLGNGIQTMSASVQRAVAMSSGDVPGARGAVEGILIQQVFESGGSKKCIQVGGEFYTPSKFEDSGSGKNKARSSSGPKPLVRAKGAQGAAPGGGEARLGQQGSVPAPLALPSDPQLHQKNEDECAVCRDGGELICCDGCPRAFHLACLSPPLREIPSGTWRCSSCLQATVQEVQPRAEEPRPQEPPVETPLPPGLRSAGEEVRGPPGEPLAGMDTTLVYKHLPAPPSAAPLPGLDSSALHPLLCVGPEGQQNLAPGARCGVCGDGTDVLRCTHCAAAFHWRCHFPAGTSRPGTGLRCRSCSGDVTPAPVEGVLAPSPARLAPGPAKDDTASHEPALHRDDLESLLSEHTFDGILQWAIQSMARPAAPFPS

Variants of: B1
Assay: AIRE transcriptional activation functional score (insulin promoter-GFP; nonsense median 0, synonymous median 1) (normalised score); higher = higher AIRE activity (more reporter activation)
Settings: with insulin promoter-GFP reporter in HEK293
measuredAttribute: AIRE transcriptional activation functional score
Please give the numeric answer without any surrounding text.

D312H; 1
A144T; 1.02
E353W; 1.17

Consider `A73T` . Its measured AIRE transcriptional activation functional score is 1.01

Consider `C337I` . Its measured AIRE transcriptional activation functional score is 0.888

Consider `P430Q` . Its measured AIRE transcriptional activation functional score is 1.01

Consider `M184L` . Its measured AIRE transcriptional activation functional score is 0.411

Consider `T524H` . Its measured AIRE transcriptional activation functional score is -0.0688

Consider `T183Q` . Its measured AIRE transcriptional activation functional score is 0.469
